organism: Rattus norvegicus; test: Open TG-GATES - Regimen: Daily Repeat; type: toxicity, organism-based, Sprague-Dawley; set-up: regimen Daily Repeat, gender Male, age 6 weeks; details: in vivo, po, 0 mg/kg, […], tissue Plasma, route gavage, dose level Control, time 28 day
Output 1 for records whose gamma-GTP is lower than 1 IU/L, 0 for records at or above 1 IU/L.

See these solved cases before continuing.
- compound: "NNC(=O)c1ccncc1"
  assigned label: 0
- compound: "CN1C(=O)CN=C(c2ccccc2)c2cc(Cl)ccc21"
  assigned label: 0
- compound: "CN(C)CCN(Cc1cccs1)c1ccccn1"
  assigned label: 0
- compound: "COc1ccc2[nH]c([S+]([O-])Cc3ncc(C)c(OC)c3C)nc2c1 (stereo not given)"
  assigned label: 1
- compound: "COC1=CC(=O)C[C@@H](C)[C@]12Oc1c(Cl)c(OC)cc(OC)c1C2=O"
  assigned label: 0

Report whether reported gamma-GTP is lower than 1 IU/L (strictly) for "O=C(CCCN1CCC(O)(c2ccc(Cl)cc2)CC1)c1ccc(F)cc1"
0

Report whether reported gamma-GTP is lower than 1 IU/L (strictly) for "CC1=C(/C=C/C(C)=C/C=C/C(C)=C/CO)C(C)(C)CCC1"
0

Report whether reported gamma-GTP is lower than 1 IU/L (strictly) for "CN(C)CCCN1c2ccccc2CCc2ccccc21"
1
